Reported growth by item:
Tested on: HL-60(TB) leukemia
Test: NCI-60 one-dose screen, 48 h (100 = growth as untreated, 0 = no growth, -100 = all killed)
Details: 10 µM unless noted
Compounds without any hit were thinned out: in the full panel of roughly 83,000, 20% have a hit.
measured endpoint: growth (%)

[[record]]
smiles_input = "Cc1ccc(-c2nn(-c3ccccc3)cc2/C=C/C(=O)c2ccc(NC(=O)CCCCCCC(=O)NO)cc2)cc1"
measured_endpoint = "growth"
measured_value = 109

[[record]]
smiles_input = "CN1CCN(Cc2ccc(NC(=O)c3cncc(C#Cc4cnn5cccnc45)c3)cc2C(F)(F)F)CC1"
measured_endpoint = "growth"
measured_value = -19

[[record]]
smiles_input = "CN(C)CCN(C)c1ccc2ncc(C#Cc3cncc(C(=O)Nc4ccc(CN5CCN(C)CC5)c(C(F)(F)F)c4)c3)n2n1"
measured_endpoint = "growth"
measured_value = 36.5

[[record]]
smiles_input = "COc1ccc2c(c1)c(-c1nc(N)nnc1-c1c[nH]c3ccccc13)cn2C"
measured_endpoint = "growth"
measured_value = 3.5

[[record]]
smiles_input = "CCN(CC)c1ccc(/C=N/NC(=O)c2ccc(S(N)(=O)=O)cc2)cc1"
measured_endpoint = "growth"
measured_value = 2.37

[[record]]
smiles_input = "[Cl][Ru].c1ccc(-c2cc(-c3ccccn3)nc(-c3ccccn3)c2)cc1.c1ccc(-c2ccnc3c2ccc2c(-c4ccccc4)ccnc23)cc1"
measured_endpoint = "growth"
measured_value = -29.2

[[record]]
smiles_input = "COc1ccc(N2CCN(C(=O)CSc3ccc(-c4nc5cc(C)c(C)cc5[nH]4)cn3)CC2)cc1"
measured_endpoint = "growth"
measured_value = 29.4

[[record]]
smiles_input = "O=[N+]([O-])c1ccc(-c2nnc(SCc3ccc(O)c4ncccc34)n2-c2ccccc2)cc1"
measured_endpoint = "growth"
measured_value = 32.5

